Tested on: 967376-340-R-J2-PDC multicell spheroid viability
Assay: Anticancer human tumor 967376-340-R-J2-PDC patient-derived colon adenocarcinoma cell line growth inhibition [PI3K]; active = viability on the fitted dose curve at most 10% of control; inactive = the rest
Details: second compound 1 µM; first compound 0.949 µM
API: response.call in active, inactive

1. Cn1cnc2c(F)c(Nc3ccc(Br)cc3Cl)c(C(=O)NOCCO)cc21 + CC(Nc1ccc2c(c1)OCCn1cc(N3C(=O)OCC3C(F)F)nc1-2)C(N)=O
inactive

// query Dear colleague, could you share the recorded outcome for Cn1cnc2c(F)c(Nc3ccc(Br)cc3Cl)c(C(=O)NOCCO)cc21 + CC(Nc1ncnc2nc[nH]c12)c1cc2cccc(Cl)c2c(=O)n1-c1ccccc1 when you have a moment?
// result inactive

// query Dear colleague, could you share the recorded outcome for Cn1cnc2c(F)c(Nc3ccc(Br)cc3Cl)c(C(=O)NOCCO)cc21 + Cc1nc(NC(=O)N2CCCC2C(N)=O)sc1-c1ccnc(C(C)(C)C(F)(F)F)c1 when you have a moment?
// result inactive

// query Dear colleague, could you share the recorded outcome for Cn1cnc2c(F)c(Nc3ccc(Br)cc3Cl)c(C(=O)NOCCO)cc21 + COc1c(OCCCN2CCOCC2)ccc2c3n(c(=NC(=O)c4cnc(N)nc4)nc12)CCN3 when you have a moment?
// result active

###

System: 967376-340-R-J2-PDC multicell spheroid viability
Test: Anticancer human tumor 967376-340-R-J2-PDC cell line growth inhibition [PI3K]; active means viability on the fitted dose curve at most 10% of control; inactive means the rest
Settings: second compound 0.316 µM; first compound 0.949 µM
API: response.call in T (active), F (inactive)

1) Cn1cnc2c(F)c(Nc3ccc(Br)cc3Cl)c(C(=O)NOCCO)cc21 + COc1c(OCCCN2CCOCC2)ccc2c3n(c(=NC(=O)c4cnc(N)nc4)nc12)CCN3
T
2) Cn1cnc2c(F)c(Nc3ccc(Br)cc3Cl)c(C(=O)NOCCO)cc21 + CC(Nc1ncnc2nc[nH]c12)c1cc2cccc(Cl)c2c(=O)n1-c1ccccc1
F

// query Dear colleague, could you share the recorded outcome for Cn1cnc2c(F)c(Nc3ccc(Br)cc3Cl)c(C(=O)NOCCO)cc21 + Cc1nc(NC(=O)N2CCCC2C(N)=O)sc1-c1ccnc(C(C)(C)C(F)(F)F)c1 when you have a moment?
// result F

// query Dear colleague, could you share the recorded outcome for Cn1cnc2c(F)c(Nc3ccc(Br)cc3Cl)c(C(=O)NOCCO)cc21 + CC(Nc1ccc2c(c1)OCCn1cc(N3C(=O)OCC3C(F)F)nc1-2)C(N)=O when you have a moment?
// result F

###

Tested on: 967376-340-R-J2-PDC multicell spheroid viability
Experiment: Anticancer human tumor 967376-340-R-J2-PDC cell line growth inhibition [PI3K];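 note: luminescence used as surrogate of cell viability; spheroids exposed to agents for 7 days before read-out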
Details: second compound 0.1 µM; first compound 0.316 µM; active compounds read low
testReadout: viability, T/C (%)
Answer with a number only, understood to be in %.

Below: 4 compounds and their reported viability, T/C.
1) C#Cc1c(F)ccc2cc(O)cc(-c3ncc4c(N5CC6CCC(C5)N6)nc(OCC56CCCN5CC(F)C6)nc4c3F)c12 (stereo not given) + CC(Nc1ncnc2nc[nH]c12)c1cc2cccc(Cl)c2c(=O)n1-c1ccccc1
80.5
2) Cn1nccc1Nc1nccc(-c2ccn(C(CO)c3ccc(Cl)c(F)c3)c(=O)c2)n1 (stereo not given) + Cc1nc(NC(=O)N2CCCC2C(N)=O)sc1-c1ccnc(C(C)(C)C(F)(F)F)c1
85.1
3) CCN1CCN(Cc2ccc(Nc3ncc(F)c(-c4cc(F)c5nc(C)n(C(C)C)c5c4)n3)nc2)CC1 + COc1c(OCCCN2CCOCC2)ccc2c3n(c(=NC(=O)c4cnc(N)nc4)nc12)CCN3
39.2
4) CNC(=O)c1ccc(N2C(=S)N(c3ccc(C#N)c(C(F)(F)F)c3)C(=O)C2(C)C)cc1F + CC(Nc1ncnc2nc[nH]c12)c1cc2cccc(Cl)c2c(=O)n1-c1ccccc1
94.2

Next item in the queue.
Entry CC(Cn1ccc(-c2ccc(C#N)c(Cl)c2)n1)NC(=O)c1cc(C(C)O)[nH]n1 (stereo not given) + CC(Nc1ncnc2nc[nH]c12)c1cc2cccc(Cl)c2c(=O)n1-c1ccccc1 , 967376-340-R-J2-PDC multicell spheroid viability data, viability, T/C value: 104

###

Tested on: 967376-340-R-J2-PDC multicell spheroid viability
Assay: Anticancer human tumor 967376-340-R-J2-PDC cell line growth inhibition [PI3K];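 note: luminescence used as surrogate of cell viability; spheroids exposed to agents for 7 days before read-out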
Conditions: second compound 0.0316 µM; first compound 3.16 µM; active compounds read low
testReadout: viability, T/C (%)
Answer with a number only, understood to be in %.

Input CCCS(=O)(=O)Nc1ccc(F)c(C(=O)c2c[nH]c3ncc(-c4ccc(Cl)cc4)cc23)c1F + CC(Nc1ncnc2nc[nH]c12)c1cc2cccc(Cl)c2c(=O)n1-c1ccccc1 . Output viability, T/C: 103

###

System: 967376-340-R-J2-PDC multicell spheroid viability
Assay: Anticancer human tumor 967376-340-R-J2-PDC cell line growth inhibition [PI3K];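 note: luminescence used as surrogate of cell viability; spheroids exposed to agents for 7 days before read-out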
Conditions: second compound 0.316 µM; first compound 0.00316 µM; active compounds read low
Grouping key: viability, T/C. Bins: lower level: < 50%; middle level: ≥ 50% and < 80%; upper level: ≥ 80%

Use the examples below as a reference point.
1) CC(C)n1nc(-c2ccc3oc(N)nc3c2)c2c(N)ncnc21 + CC(Nc1ccc2c(c1)OCCn1cc(N3C(=O)OCC3C(F)F)nc1-2)C(N)=O
middle level
2) CCN1CCN(Cc2ccc(Nc3ncc(F)c(-c4cc(F)c5nc(C)n(C(C)C)c5c4)n3)nc2)CC1 + CC(Nc1ccc2c(c1)OCCn1cc(N3C(=O)OCC3C(F)F)nc1-2)C(N)=O
middle level
3) Cn1ncnc1[C@H]1c2n[nH]c(=O)c3cc(F)cc(c23)N[C@@H]1c1ccc(F)cc1 + COc1c(OCCCN2CCOCC2)ccc2c3n(c(=NC(=O)c4cnc(N)nc4)nc12)CCN3
lower level
4) CC(=O)c1c(C)c2cnc(Nc3ccc(N4CCNCC4)cn3)nc2n(C2CCCC2)c1=O + Cc1nc(NC(=O)N2CCCC2C(N)=O)sc1-c1ccnc(C(C)(C)C(F)(F)F)c1
middle level
5) CC(=O)c1c(C)c2cnc(Nc3ccc(N4CCNCC4)cn3)nc2n(C2CCCC2)c1=O + CC(Nc1ncnc2nc[nH]c12)c1cc2cccc(Cl)c2c(=O)n1-c1ccccc1
upper level

// query Please report the category associated with CC(C)n1nc(-c2ccc3oc(N)nc3c2)c2c(N)ncnc21 + CC(Nc1ncnc2nc[nH]c12)c1cc2cccc(Cl)c2c(=O)n1-c1ccccc1 , nothing else.
// result upper level

// query Please report the category associated with CCN1CCN(Cc2ccc(Nc3ncc(F)c(-c4cc(F)c5nc(C)n(C(C)C)c5c4)n3)nc2)CC1 + COc1c(OCCCN2CCOCC2)ccc2c3n(c(=NC(=O)c4cnc(N)nc4)nc12)CCN3 , nothing else.
// result middle level

// query Please report the category associated with CCN1CCN(Cc2ccc(Nc3ncc(F)c(-c4cc(F)c5nc(C)n(C(C)C)c5c4)n3)nc2)CC1 + Cc1nc(NC(=O)N2CCCC2C(N)=O)sc1-c1ccnc(C(C)(C)C(F)(F)F)c1 , nothing else.
// result middle level

// query Please report the category associated with CC(C)n1nc(-c2ccc3oc(N)nc3c2)c2c(N)ncnc21 + COc1c(OCCCN2CCOCC2)ccc2c3n(c(=NC(=O)c4cnc(N)nc4)nc12)CCN3 , nothing else.
// result lower level

// query Please report the category associated with CCN1CCN(Cc2ccc(Nc3ncc(F)c(-c4cc(F)c5nc(C)n(C(C)C)c5c4)n3)nc2)CC1 + CC(Nc1ncnc2nc[nH]c12)c1cc2cccc(Cl)c2c(=O)n1-c1ccccc1 , nothing else.
// result upper level

###

System: 967376-340-R-J2-PDC multicell spheroid viability
Assay: Anticancer human tumor 967376-340-R-J2-PDC cell line growth inhibition [PI3K];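 note: luminescence used as surrogate of cell viability; spheroids exposed to agents for 7 days before read-out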
Conditions: second compound 0.316 µM; first compound 3.16 µM; active compounds read low
testReadout: viability, T/C

1. CCCS(=O)(=O)Nc1ccc(F)c(C(=O)c2c[nH]c3ncc(-c4ccc(Cl)cc4)cc23)c1F + Cc1nc(NC(=O)N2CCCC2C(N)=O)sc1-c1ccnc(C(C)(C)C(F)(F)F)c1
88.4%
2. C[C@@H](NC(=O)c1ncnc(N)c1Cl)c1ncc(C(=O)Nc2cc(C(F)(F)F)c(Cl)cn2)s1 + Cc1nc(NC(=O)N2CCCC2C(N)=O)sc1-c1ccnc(C(C)(C)C(F)(F)F)c1
89.7%
3. C[C@@H](NC(=O)c1ncnc(N)c1Cl)c1ncc(C(=O)Nc2cc(C(F)(F)F)c(Cl)cn2)s1 + CC(Nc1ncnc2nc[nH]c12)c1cc2cccc(Cl)c2c(=O)n1-c1ccccc1
96.9%

Entry CC(Cn1ccc(-c2ccc(C#N)c(Cl)c2)n1)NC(=O)c1cc(C(C)O)[nH]n1 (stereo unspecified) + Cc1nc(NC(=O)N2CCCC2C(N)=O)sc1-c1ccnc(C(C)(C)C(F)(F)F)c1 , 967376-340-R-J2-PDC multicell spheroid viability data, viability, T/C value: 102%

Entry source: PubChem BioAssay AID1963962
